Target under test: human carbonic anhydrase 9 (CAIX) (human, UniProt Q16790 38-459)
Protocol: FACS competition on HT-29 cells, competitor tracer 3BP-2776; category A = pIC50 >8.0
Starred links: 1 amine or outer side, 2 acyl side, 3 side chain; linkers in the order of their positions; H or OH if unused. Positions of bridges follow the written chain, without caps; N, C: chain ends. Non-standard residues stand in square brackets, D forms with d. Primed or numbered codes have the meaning given here. *: point of attachment. Af3(MSAc) = 3-aminophenylalanine with 2-methanesulfonylacetyl on the ring amine, CS(=O)(=O)CC(=O)Nc1cccc(C[C@H](N[*:1])C(=O)[*:2])c1; APAc″ = 2-(4-(amino)piperidin-1-yl)acetic acid, NC1CCN(CC(=O)*)CC1; DOTA = O=C(O)CN1CCN(CC(=O)O)CCN(CC(=O)*)CCN(CC(=O)O)CC1; mXylylene = c1cc(C[*:1])cc(C[*:2])c1
Quantity name: pIC50

Fill in: pIC50 of {DOTA-APAc″}-VYCE[dP]D[Af3(MSAc)]LTWSC-NH2 (linker 3-12 via mXylylene) [3BP-4242] is ___
> 8 pic50
